# target-of-assay: human recombinant prostanoid EP2 receptor (Homo sapiens, UniProt P43116)
# Construct: expressed in transfected cells; co-transfected with chimeric Gqs-HA
# Sequence (P43116 whole entry): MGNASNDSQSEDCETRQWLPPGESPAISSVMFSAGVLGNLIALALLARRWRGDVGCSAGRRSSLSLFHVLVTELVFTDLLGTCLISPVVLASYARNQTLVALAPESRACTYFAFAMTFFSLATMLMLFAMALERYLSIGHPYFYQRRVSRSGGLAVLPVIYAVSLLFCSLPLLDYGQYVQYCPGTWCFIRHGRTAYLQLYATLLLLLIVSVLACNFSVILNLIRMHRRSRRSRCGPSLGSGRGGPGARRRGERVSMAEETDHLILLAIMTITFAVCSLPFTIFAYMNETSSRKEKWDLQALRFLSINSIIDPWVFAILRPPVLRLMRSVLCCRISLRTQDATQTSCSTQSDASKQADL
# test-method-notes: FLIPR Ca2+ signaling PG antagonist assay, EP2 receptor stable cell line
# Format: cell-based
# setup-conditions: HEK-293 EBNA cells with chimeric Gqs, standard agonist PGE2
Recorded Kb values for a group of compounds are listed next.

{"record-smiles": "Cc1cc(C(=O)O)nn1Cc1cc(C(F)(F)F)ccc1OCC1CCCC1", "prefix-operator": "=", "Kb (µM)": 8.9}
{"record-smiles": "Cc1cc(C(=O)O)nn1Cc1cc(Cl)ccc1OCC1CCCC1", "prefix-operator": "≥", "Kb (µM)": 10}
{"record-smiles": "Cc1cc(C(=O)O)nn1Cc1cc(Br)ccc1OCC1CCC1", "prefix-operator": "≥", "Kb (µM)": 10}
{"record-smiles": "COc1ccc(COc2ccc(Cl)cc2Cn2nc(C(=O)NS(=O)(=O)c3ccccc3)cc2C)cc1", "prefix-operator": "=", "Kb (µM)": 4.9}
{"record-smiles": "Cc1cc(C(=O)NS(=O)(=O)c2ccccc2)nn1Cc1cc(Cl)ccc1OCc1ccc(Cl)cc1", "prefix-operator": "≥", "Kb (µM)": 10}
{"record-smiles": "CCC(CC)COc1ccc(Br)cc1Cn1nc(C(=O)O)cc1C", "prefix-operator": "=", "Kb (µM)": 6.2}
{"record-smiles": "Cc1cc(C(=O)O)nn1Cc1cc(Br)ccc1OCC1CCCC1", "prefix-operator": "≥", "Kb (µM)": 10}
{"record-smiles": "CCC(C)(CC)COc1ccc(Br)cc1Cn1nc(C(=O)O)cc1C", "prefix-operator": "=", "Kb (µM)": 3.6}
{"record-smiles": "Cc1cc(C(=O)O)nn1Cc1cc(Br)ccc1OCC1(C(F)(F)F)CCC1", "prefix-operator": "=", "Kb (µM)": 3.3}
